test system: MOLM14; assay: cell viability relative to vehicle control; higher = less cytotoxic; conditions: 10 µM; SRSF2 genotype: SRSF2 wt/wt;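 further: after 48 h exposure read by CellTiter-Glo luminescence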
Hi! Could you tag entries with cell viability below 90% as satisfied, and those at or above as not satisfied? Much appreciated.

Field: example entries. Status: answers known.
Compound | Assigned Label
C[C@@H](Nc1nc(N[C@H](C)C(F)(F)F)nc(-c2cccc(Cl)n2)n1)C(F)(F)F [Vorasidenib (AG-881)] | satisfied
Cn1nccc1Nc1nccc(-c2cc3c(s2)C(C)(C)N(CCN2CCOCC2)C3=O)n1 | satisfied
C[C@@H]1C(=O)O[C@H](C)[C@H]1C[C@@H](O)[C@](C)(O)[C@H]1CC[C@@]2(O)C3=CC(=O)[C@@H]4C[C@@H](O)[C@@H](O)C[C@]4(C)[C@H]3CC[C@]12C [Cyasterone] | not satisfied
O=[N+]([O-])c1cn2c(n1)OC[C@@H](OCc1ccc(OC(F)(F)F)cc1)C2 | not satisfied
O=CC[C@@H](O)[C@H](O)[C@H](O)CO [2-Deoxy-D-glucose] | not satisfied
CC1(C)S[C@@H]2[C@H](NC(=O)[C@H](N)c3ccccc3)C(=O)N2[C@H]1C(=O)O [Ampicillin sodium] | not satisfied

### Prompt Please state whether cell viability is below 90% for O=C(CCCCCCNC(=O)c1cnc(N(c2ccccc2)c2ccccc2Cl)nc1)NO [Citarinostat (ACY-241)]
### Response satisfied

### Prompt Please state whether cell viability is below 90% for O=C(O)c1cn(C2CC2)c2cc(Cl)c(F)cc2c1=O [Fluoroquinolonic Acid]
### Response not satisfied
